- TGT: mTSPO (recombinant mouse translocator protein) (Mus musculus)
- PROCEDURE TEXT: […] NMR chemical shift titration
pKd: −log10 of the molar value.
PROPERTY NAME: pKd

Input: # lookup: pKd of CN(C(=O)[C@H](Cc1ccc(F)cc1)NC(=O)c1ccccc1)c1ccccc1 [4b, RF3458]
Output: ~5.30

====

- TGT: mTSPO (recombinant mouse translocator protein) (Mus musculus)
- PROCEDURE TEXT: […] NMR competition with RF3458
PROPERTY NAME: Ki

Input: # lookup: Ki of CC[C@@H](C)N(C)C(=O)c1cc2ccccc2c(-c2ccccc2Cl)n1 [(R)-PK 11195]
Output: ~90 µM
